Where do these numbers come from? They come from the kinase profiling compilation of Christmann-Franck et al. (2016).

biological target: MAPK8 (human); assay: KINOMEscan competition binding; conditions: compound 10.0 µM
Note to self: kinase still bound, per cent of control under 70% means 1, ties and anything higher get -1.

Take a look at these entries with their results.
compound	group
N#Cc1c(NC(=O)c2cccc3ccccc23)sc2c1CCCC2	1
CCN1CCN(Cc2ccc(Nc3ncc4c(n3)N(C)c3ccccc3C(=O)N4C)cc2C(F)(F)F)CC1	-1
CN(C)C/C=C/C(=O)Nc1cccc(Nc2ncc3c(n2)N(C)c2ccccc2C(=O)N3C)c1	-1
O=C(O)c1ccc(Nc2ncc3c(n2)-c2ccc(Cl)cc2C(c2c(F)cccc2F)=NC3)cc1	-1
CCOc1cc2ncc(C#N)c(Nc3ccc(OCc4ccccn4)c(Cl)c3)c2cc1NC(=O)/C=C/CN(C)C	1
COc1cc(N2CCN(C)CC2)ccc1Nc1nc(N)c(C(=O)c2c(Cl)cccc2Cl)s1	-1
Cn1c(=O)n(-c2ccc(C(C)(C)C#N)cc2)c2c3cc(-c4cnc5ccccc5c4)ccc3ncc21	-1
Cc1ccc(C(=O)Nc2cccc(C(F)(F)F)c2)cc1Nc1cncc(C(N)=O)c1	-1

Identify whether the compound "CCC(=O)N1CCN(c2ccc(-n3c(=O)ccc4cnc5ccc(-c6cnc7ccccc7c6)cc5c43)cc2C(F)(F)F)CC1" records kinase still bound, per cent of control below 70%.
1

# strict comparison: is reported kinase still bound, per cent of control < 70%? input = "Cc1cc([C@@H](C)Nc2ccccc2C(=O)O)c2nc(N3CCOCC3)cc(=O)n2c1"
-1

Would you kindly verify if kinase still bound, per cent of control of "C=CC(=O)Nc1cccc(Oc2nc(Nc3ccc(N4CCN(C)CC4)cc3OC)ncc2Cl)c1" is strictly less than 70%?
1

Lab log: compare recorded kinase still bound, per cent of control with 70%; is it strictly lower for "COc1cc(C(=O)NC2CCN(C)CC2)ccc1Nc1ncc2c(n1)N(C1CCCC1)CCC(=O)N2C(C)C" ?
-1

Field: below-cutoff. Rule: recorded kinase still bound, per cent of control strictly less than 70%. Subject: COc1cc(C(=O)NC2CCN(C)CC2)ccc1Nc1ncc2c(n1)N(C1CCCC1)C(C)CC(=O)N2C (centres undefined)
-1

Identify whether the compound "O=C(NC1CC1)c1cccc(-c2ccc3c(NC(=O)C4CC4)n[nH]c3c2)c1" records kinase still bound, per cent of control below 70%.
1

In plain terms, does "C=CC(=O)Nc1cccc(Nc2nc(N[C@H]3CC[C@H](N(C)C)CC3)nc3c2ncn3C(C)C)c1" come in under 70% for kinase still bound, per cent of control?
-1

Does the reported kinase still bound, per cent of control of "Cc1ccc(NC(=O)c2cccc(C(C)(C)C#N)c2)cc1Nc1ccc2ncn(C)c(=O)c2c1" stay below 70%?
-1

Take the compound "CCCS(=O)(=O)Nc1ccc(F)c(C(=O)c2c[nH]c3ncc(-c4ccc(Cl)cc4)cc23)c1F" and say whether its kinase still bound, per cent of control is less than 70%.
1

Strictly below 70%: is that where kinase still bound, per cent of control of "OCCCNc1cc(-c2ccnc(Nc3cccc(Cl)c3)n2)ccn1" sits?
-1

Please check: kinase still bound, per cent of control for "Cc1ccc2nc(NCCN)c3ncc(C)n3c2c1" , strictly under 70% or not?
1

* * *

Give kinase still bound, per cent of control for every item shown.
tested on: FLT3 (human), P36888 [ITD]; assay: KINOMEscan competition binding; settings: compound 10.0 µM
Sequence (P36888 whole entry, looked up, change not shown): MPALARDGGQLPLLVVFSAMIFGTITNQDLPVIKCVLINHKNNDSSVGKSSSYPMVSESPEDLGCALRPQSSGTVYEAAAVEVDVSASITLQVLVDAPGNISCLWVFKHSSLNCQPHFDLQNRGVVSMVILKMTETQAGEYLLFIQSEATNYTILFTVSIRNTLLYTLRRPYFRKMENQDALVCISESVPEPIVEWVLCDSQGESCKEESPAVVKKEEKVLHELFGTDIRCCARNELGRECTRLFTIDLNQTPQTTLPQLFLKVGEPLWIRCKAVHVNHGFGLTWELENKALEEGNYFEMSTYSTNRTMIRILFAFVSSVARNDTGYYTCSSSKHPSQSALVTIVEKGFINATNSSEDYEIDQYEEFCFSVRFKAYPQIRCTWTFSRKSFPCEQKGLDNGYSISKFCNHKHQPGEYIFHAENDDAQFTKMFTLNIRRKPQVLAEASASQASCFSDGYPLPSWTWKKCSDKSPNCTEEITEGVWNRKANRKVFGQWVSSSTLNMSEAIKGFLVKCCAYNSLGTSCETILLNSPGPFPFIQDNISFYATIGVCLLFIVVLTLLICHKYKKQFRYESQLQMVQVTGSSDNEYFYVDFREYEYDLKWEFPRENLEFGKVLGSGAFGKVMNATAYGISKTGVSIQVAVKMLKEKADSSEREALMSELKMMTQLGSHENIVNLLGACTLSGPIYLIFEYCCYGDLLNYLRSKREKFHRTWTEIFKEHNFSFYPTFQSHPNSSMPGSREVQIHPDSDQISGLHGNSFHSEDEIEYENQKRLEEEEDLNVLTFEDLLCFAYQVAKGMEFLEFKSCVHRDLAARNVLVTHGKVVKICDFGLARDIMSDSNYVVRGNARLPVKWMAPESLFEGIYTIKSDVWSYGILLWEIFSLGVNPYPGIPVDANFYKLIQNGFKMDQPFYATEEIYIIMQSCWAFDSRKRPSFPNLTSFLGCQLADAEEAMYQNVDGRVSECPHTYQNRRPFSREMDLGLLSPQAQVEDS

List reported kinase still bound, per cent of control for each of these compounds:
1. CCN(CC)CCCCNc1ncc2c(n1)N(C)C(=O)N(c1c(Cl)c(OC)cc(OC)c1Cl)C2
2. N#CCNC(=O)c1ccc(-c2ccnc(Nc3ccc(N4CCOCC4)cc3)n2)cc1
3. O=C(NC1CC1)c1cccc(-c2ccc3c(NC(=O)C4CC4)n[nH]c3c2)c1
4. COc1cc2ncnc(Nc3cccc(Cl)c3)c2cc1OC

1. 100%
2. 22%
3. 30%
4. 24%

Items follow; give kinase still bound, per cent of control for each.
1. C=CC(=O)Nc1ccc(CN(C(=O)Nc2c(Cl)c(OC)cc(OC)c2Cl)c2cc(Nc3ccc(N4CCN(C)CC4)cc3)ncn2)cc1
2. Cc1ccc(NC(=O)c2cccc(C(C)(C)C#N)c2)cc1Nc1ccc2ncn(C)c(=O)c2c1

1. 100%
2. 78%

# batch: return kinase still bound, per cent of control for each of the 2 compounds below
1. Cc1cn(-c2cc(C(=O)Nc3ccc(C)c(NC(=O)c4ccno4)c3)cc(C(F)(F)F)c2)cn1
2. CCOc1cc(N2CCC(O)CC2)ccc1Nc1ncc2c(n1)N(C)c1ccccc1C(=O)N2C

["100%", "100%"]

* * *

molecular target: UniProtKB P41240; test: KINOMEscan competition binding; conditions: compound 10.0 µM
Sequence (P41240 whole entry, looked up): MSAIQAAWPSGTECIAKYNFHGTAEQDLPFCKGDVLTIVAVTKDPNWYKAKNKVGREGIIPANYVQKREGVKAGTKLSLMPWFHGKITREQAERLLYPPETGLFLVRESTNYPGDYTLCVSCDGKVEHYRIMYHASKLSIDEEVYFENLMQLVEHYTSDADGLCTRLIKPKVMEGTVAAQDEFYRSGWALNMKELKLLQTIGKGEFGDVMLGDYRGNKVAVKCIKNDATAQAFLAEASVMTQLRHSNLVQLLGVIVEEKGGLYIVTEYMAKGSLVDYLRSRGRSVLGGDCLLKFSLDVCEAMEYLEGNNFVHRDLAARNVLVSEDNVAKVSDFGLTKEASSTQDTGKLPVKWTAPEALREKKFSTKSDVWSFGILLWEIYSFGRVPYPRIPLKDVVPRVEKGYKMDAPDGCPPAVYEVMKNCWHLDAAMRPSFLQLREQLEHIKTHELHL
Can you tell me kinase still bound, per cent of control for the items I'm about to list?
Put your answer as a value accompanied by its unit after it.

List the reported kinase still bound, per cent of control of each molecule below.
1. CCC(=O)N1CCN(c2ccc(-n3c(=O)ccc4cnc5ccc(-c6cnc7ccccc7c6)cc5c43)cc2C(F)(F)F)CC1
2. Cc1ccc2nc(NCCN)c3ncc(C)n3c2c1

71%
100%

* * *

target: CSNK1G2 (human) (UniProt P78368); test: KINOMEscan competition binding; conditions: compound 10.0 µM
Sequence (P78368 whole entry, looked up): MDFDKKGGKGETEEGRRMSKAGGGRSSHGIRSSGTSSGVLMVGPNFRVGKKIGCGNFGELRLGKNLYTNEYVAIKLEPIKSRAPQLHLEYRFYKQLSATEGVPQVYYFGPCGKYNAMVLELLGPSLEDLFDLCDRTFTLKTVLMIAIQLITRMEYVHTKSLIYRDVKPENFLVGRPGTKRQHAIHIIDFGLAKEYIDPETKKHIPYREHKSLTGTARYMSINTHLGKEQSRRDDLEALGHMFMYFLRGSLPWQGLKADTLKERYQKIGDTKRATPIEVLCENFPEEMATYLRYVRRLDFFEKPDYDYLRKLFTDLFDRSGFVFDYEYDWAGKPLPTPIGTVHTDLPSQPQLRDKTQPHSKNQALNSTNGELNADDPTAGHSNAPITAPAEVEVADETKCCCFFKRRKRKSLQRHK
Threshold 90%. kinase still bound, per cent of control below it: class 1. kinase still bound, per cent of control at it or above: class 0.

Hello, I'm reviewing records and need to know if kinase still bound, per cent of control of "Nc1ccc(-c2ccc3ncc4ccc(=O)n(-c5cccc(C(F)(F)F)c5)c4c3c2)cn1" is below 90%. Could you check?
class 0

Strictly below 90%: is that where kinase still bound, per cent of control of "CCC(=O)N1CCN(c2ccc(-n3c(=O)ccc4cnc5ccc(-c6cnc7ccccc7c6)cc5c43)cc2C(F)(F)F)CC1" sits?
class 0

Take the molecule "C=CC(=O)Nc1cccc(Oc2nc(Nc3ccc(N4CCN(C)CC4)cc3OC)ncc2Cl)c1" and say whether its kinase still bound, per cent of control is less than 90%.
class 0

Determine whether this molecule shows kinase still bound, per cent of control lower than 90% (ties excluded): "COc1cc(N2CCN(C)CC2)ccc1Nc1nc(N)c(C(=O)c2c(Cl)cccc2Cl)s1"
class 0

Check if kinase still bound, per cent of control falls below 90% for "O=C(NOC[C@H](O)CO)c1ccc(F)c(F)c1Nc1ccc(I)cc1F" .
class 0

Decide: kinase still bound, per cent of control of COc1cc(C(=O)NC2CCN(C)CC2)ccc1Nc1ncc2c(n1)N(C1CCCC1)C(C)CC(=O)N2C (stereo not drawn) strictly below 90%?
class 0

Hi there! Is kinase still bound, per cent of control for "Cc1ccc(NC(=O)c2cccc(C(C)(C)C#N)c2)cc1Nc1ccc2ncn(C)c(=O)c2c1" below 90%, do you know?
class 0

Lab note: confirm whether the reported kinase still bound, per cent of control for this molecule is below 90%, equality not counting. molecule: "C[C@@H](Oc1cc(-n2cnc3ccc(CN4CCN(C)CC4)cc32)sc1C(N)=O)c1ccccc1C(F)(F)F"
class 0

Threshold test, kinase still bound, per cent of control < 90%: "C=CC(=O)Nc1cccc(Nc2nc(N[C@H]3CC[C@H](N(C)C)CC3)nc3c2ncn3C(C)C)c1"
class 1

Is kinase still bound, per cent of control strictly under 90% for the entry "CCN1CCN(Cc2ccc(Nc3ncc4c(n3)N(C)c3ccccc3C(=O)N4C)cc2C(F)(F)F)CC1" ?
class 1

Lab log: compare recorded kinase still bound, per cent of control with 90%; is it strictly lower for "CN(C)C/C=C/C(=O)Nc1cccc(Nc2ncc3c(n2)N(C)c2ccccc2C(=O)N3C)c1" ?
class 1

Is the reported kinase still bound, per cent of control for "O=C(O)c1ccc(Nc2ncc3c(n2)-c2ccc(Cl)cc2C(c2c(F)cccc2F)=NC3)cc1" strictly below 90%?
class 1

Would you kindly verify if kinase still bound, per cent of control of "O=C(NC1CC1)c1cccc(-c2ccc3c(NC(=O)C4CC4)n[nH]c3c2)c1" is strictly less than 90%?
class 0

Record "COc1cc(C(=O)NC2CCN(C)CC2)ccc1Nc1ncc2c(n1)N(C1CCCC1)CCC(=O)N2C(C)C" : is its kinase still bound, per cent of control strictly below 90%?
class 0

API: query returns whether the molecule falls strictly under 90% in kinase still bound, per cent of control. Query: "Cn1c(=O)n(-c2ccc(C(C)(C)C#N)cc2)c2c3cc(-c4cnc5ccccc5c4)ccc3ncc21"
class 0

Could you please tell me whether kinase still bound, per cent of control recorded for "OCCCNc1cc(-c2ccnc(Nc3cccc(Cl)c3)n2)ccn1" is less than 90%?
class 0

* * *

I'd be grateful if you could share measured kinase still bound, per cent of control for these entries.
biological target: MAPK3 (human) (UniProt P27361); assay: KINOMEscan competition binding; conditions: compound 10.0 µM
Sequence (P27361 whole entry, looked up): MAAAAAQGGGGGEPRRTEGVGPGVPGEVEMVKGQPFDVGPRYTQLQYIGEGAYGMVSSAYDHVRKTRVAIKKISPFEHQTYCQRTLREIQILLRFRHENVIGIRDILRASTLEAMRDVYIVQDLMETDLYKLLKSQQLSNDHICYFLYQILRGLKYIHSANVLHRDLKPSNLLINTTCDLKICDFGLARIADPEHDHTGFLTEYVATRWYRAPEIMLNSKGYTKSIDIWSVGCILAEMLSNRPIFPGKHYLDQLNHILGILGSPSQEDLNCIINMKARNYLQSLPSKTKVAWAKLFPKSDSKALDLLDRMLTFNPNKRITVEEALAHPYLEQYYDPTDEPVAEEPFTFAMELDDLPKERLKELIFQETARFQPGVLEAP
Give bare numbers, in %.

Worked examples follow.
O=C1Nc2ccc(I)cc2/C1=C/c1cc(Br)c(O)c(Br)c1 100
Cc1ccc2nc(NCCN)c3ncc(C)n3c2c1 97
Cc1ccc(NC(=O)c2cccc(C(C)(C)C#N)c2)cc1Nc1ccc2ncn(C)c(=O)c2c1 100
CCOc1cc2ncc(C#N)c(Nc3ccc(OCc4ccccn4)c(Cl)c3)c2cc1NC(=O)/C=C/CN(C)C 100
C=CC(=O)Nc1cc(NC(=O)c2ccc(C)c(NC(=O)c3ccno3)c2)cc(C(F)(F)F)c1 97

Give measured kinase still bound, per cent of control for every item shown.
1. CCC(=O)N1CCN(c2ccc(-n3c(=O)ccc4cnc5ccc(-c6cnc7ccccc7c6)cc5c43)cc2C(F)(F)F)CC1
2. Nc1ccc(-c2ccc3ncc4ccc(=O)n(-c5cccc(C(F)(F)F)c5)c4c3c2)cn1

[91, 100]

For each of the molecules below, note its kinase still bound, per cent of control.
1. C=CC(=O)Nc1cccc(Nc2nc(N[C@H]3CC[C@H](N(C)C)CC3)nc3c2ncn3C(C)C)c1
2. OCCCNc1cc(-c2ccnc(Nc3cccc(Cl)c3)n2)ccn1
3. C[C@@H](Oc1cc(-n2cnc3ccc(CN4CCN(C)CC4)cc32)sc1C(N)=O)c1ccccc1C(F)(F)F
4. O=C(NC1CC1)c1cccc(-c2ccc3c(NC(=O)C4CC4)n[nH]c3c2)c1

[100, 100, 100, 95]

Parameters: items (list). Returns: kinase still bound, per cent of control for each item.
1. CCN1CCN(Cc2ccc(Nc3ncc4c(n3)N(C)c3ccccc3C(=O)N4C)cc2C(F)(F)F)CC1
2. CCCS(=O)(=O)Nc1ccc(F)c(C(=O)c2c[nH]c3ncc(-c4ccc(Cl)cc4)cc23)c1F
3. COc1cc(N2CCN(C)CC2)ccc1Nc1nc(N)c(C(=O)c2c(Cl)cccc2Cl)s1
4. Cn1c(=O)n(-c2ccc(C(C)(C)C#N)cc2)c2c3cc(-c4cnc5ccccc5c4)ccc3ncc21

1. 99
2. 100
3. 100
4. 100
